Values compiled from the supplement of paper PMC9112550.

- Test system: Escherichia coli TOP10
- procedure-details: shrunken log2 fold change of peptide-encoding DNA abundance (4.5 h post-induction vs induction); higher = less antimicrobial activity (less host growth inhibition)
- stated-conditions: time post-induction: 4.5 h; library: site-saturation at positions 5, 18, 19, 20
Decision: shrunken log2 fold change compared against -0.0006; not below it gives t, below it gives f.

Task: Entry RRIRKRPPRLPRPRPRPDCCPRP : is its shrunken log2 fold change no less than -0.0006?
Output: t

Task: Entry RRIRPRPPRLPRPRPRPYMTPRP : is its shrunken log2 fold change no less than -0.0006?
Output: f

Task: Entry RRIRFRPPRLPRPRPRPYMWPRP : is its shrunken log2 fold change no less than -0.0006?
Output: f

Task: Entry RRIRLRPPRLPRPRPRPDWYPRP : is its shrunken log2 fold change no less than -0.0006?
Output: f

Task: Entry RRIRNRPPRLPRPRPRPTGQPRP : is its shrunken log2 fold change no less than -0.0006?
Output: f

Task: Entry RRIRWRPPRLPRPRPRPRLGPRP : is its shrunken log2 fold change no less than -0.0006?
Output: t

Task: Entry RRIRTRPPRLPRPRPRPPWHPRP : is its shrunken log2 fold change no less than -0.0006?
Output: t

Task: Entry RRIRVRPPRLPRPRPRPDETPRP : is its shrunken log2 fold change no less than -0.0006?
Output: t

Task: Entry RRIRCRPPRLPRPRPRPETAPRP : is its shrunken log2 fold change no less than -0.0006?
Output: t

Task: Entry RRIRVRPPRLPRPRPRPYIYPRP : is its shrunken log2 fold change no less than -0.0006?
Output: f

Task: Entry RRIRRRPPRLPRPRPRPETDPRP : is its shrunken log2 fold change no less than -0.0006?
Output: f

Task: Entry RRIRCRPPRLPRPRPRPPLIPRP : is its shrunken log2 fold change no less than -0.0006?
Output: t

Task: Entry RRIRLRPPRLPRPRPRPECWPRP : is its shrunken log2 fold change no less than -0.0006?
Output: t

Task: Entry RRIRRRPPRLPRPRPRPCWCPRP : is its shrunken log2 fold change no less than -0.0006?
Output: f

Task: Entry RRIRPRPPRLPRPRPRPRDLPRP : is its shrunken log2 fold change no less than -0.0006?
Output: t

* * *

For each record, write down the corresponding shrunken log2 fold change.
- System: Escherichia coli TOP10
- procedure-details: shrunken log2 fold change of peptide-encoding DNA abundance (4.5 h post-induction vs induction); higher = less antimicrobial activity (less host growth inhibition)
- stated-conditions: time post-induction: 4.5 h; library: site-saturation at positions 5, 18, 19, 20
Answer with a number only.

Task: What value of measured shrunken log2 fold change is listed for RRIRARPPRLPRPRPRPSGPPRP ?
Output: 0.0223

Task: What value of measured shrunken log2 fold change is listed for RRIRGRPPRLPRPRPRPEDEPRP ?
Output: 0.0631

Task: What value of measured shrunken log2 fold change is listed for RRIRVRPPRLPRPRPRPFQDPRP ?
Output: -0.0723

Task: What value of measured shrunken log2 fold change is listed for RRIRLRPPRLPRPRPRPEGFPRP ?
Output: 0.604

Task: What value of measured shrunken log2 fold change is listed for RRIRRRPPRLPRPRPRPMWCPRP ?
Output: 0.135

Task: What value of measured shrunken log2 fold change is listed for RRIRWRPPRLPRPRPRPKGQPRP ?
Output: -0.0148

Task: What value of measured shrunken log2 fold change is listed for RRIRLRPPRLPRPRPRPCSNPRP ?
Output: -0.47

Task: What value of measured shrunken log2 fold change is listed for RRIRCRPPRLPRPRPRPDINPRP ?
Output: -0.294

* * *

- System: Escherichia coli TOP10
- procedure-details: shrunken log2 fold change of peptide-encoding DNA abundance (4.5 h post-induction vs induction); higher = less antimicrobial activity (less host growth inhibition)
- stated-conditions: time post-induction: 4.5 h; library: site-saturation at positions 5, 18, 19, 20
For each record, write down the corresponding shrunken log2 fold change.
Answer with a number only.

Task: What value of measured shrunken log2 fold change is listed for RRIRTRPPRLPRPRPRPTWQPRP ?
Output: 0.149

Task: What value of measured shrunken log2 fold change is listed for RRIRYRPPRLPRPRPRPYNRPRP ?
Output: -0.0152

Task: What value of measured shrunken log2 fold change is listed for RRIRVRPPRLPRPRPRPFIPPRP ?
Output: -0.535

Task: What value of measured shrunken log2 fold change is listed for RRIRTRPPRLPRPRPRPISWPRP ?
Output: -0.0406

Task: What value of measured shrunken log2 fold change is listed for RRIRNRPPRLPRPRPRPYTKPRP ?
Output: -0.0607

Task: What value of measured shrunken log2 fold change is listed for RRIRYRPPRLPRPRPRPTRVPRP ?
Output: 0.303

Task: What value of measured shrunken log2 fold change is listed for RRIRPRPPRLPRPRPRPHLEPRP ?
Output: -0.122

Task: What value of measured shrunken log2 fold change is listed for RRIRHRPPRLPRPRPRPDEMPRP ?
Output: 0.0307

* * *

- Test system: Escherichia coli TOP10
- procedure-details: shrunken log2 fold change of peptide-encoding DNA abundance (4.5 h post-induction vs induction); higher = less antimicrobial activity (less host growth inhibition)
- stated-conditions: time post-induction: 4.5 h; library: site-saturation at positions 5, 18, 19, 20
For each record, write down the corresponding shrunken log2 fold change.
Answer with a number only.

Task: What value of measured shrunken log2 fold change is listed for RRIRRRPPRLPRPRPRPCAPPRP ?
Output: 0.275

Task: What value of measured shrunken log2 fold change is listed for RRIRVRPPRLPRPRPRPMPQPRP ?
Output: 0.311

Task: What value of measured shrunken log2 fold change is listed for RRIRERPPRLPRPRPRPRHYPRP ?
Output: -0.462

Task: What value of measured shrunken log2 fold change is listed for RRIRLRPPRLPRPRPRPRIIPRP ?
Output: -1.12

Task: What value of measured shrunken log2 fold change is listed for RRIRQRPPRLPRPRPRPEFRPRP ?
Output: 0.0728

Task: What value of measured shrunken log2 fold change is listed for RRIRTRPPRLPRPRPRPEVAPRP ?
Output: 0.0197

Task: What value of measured shrunken log2 fold change is listed for RRIRNRPPRLPRPRPRPIQMPRP ?
Output: -0.0365

Task: What value of measured shrunken log2 fold change is listed for RRIRNRPPRLPRPRPRPCNQPRP ?
Output: 0.0223

Task: What value of measured shrunken log2 fold change is listed for RRIRGRPPRLPRPRPRPNKCPRP ?
Output: 0.139

Task: What value of measured shrunken log2 fold change is listed for RRIRYRPPRLPRPRPRPAYMPRP ?
Output: -0.396

Task: What value of measured shrunken log2 fold change is listed for RRIRLRPPRLPRPRPRPYGWPRP ?
Output: -0.265

Task: What value of measured shrunken log2 fold change is listed for RRIRVRPPRLPRPRPRPSIYPRP ?
Output: -0.482

Task: What value of measured shrunken log2 fold change is listed for RRIRHRPPRLPRPRPRPNRDPRP ?
Output: -0.0852

Task: What value of measured shrunken log2 fold change is listed for RRIRPRPPRLPRPRPRPGWHPRP ?
Output: 0.248

Task: What value of measured shrunken log2 fold change is listed for RRIRERPPRLPRPRPRPSSNPRP ?
Output: -0.0512

* * *

- Tested on: Escherichia coli TOP10;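 also: peptides expressed intracellularly from a pBAD plasmid library in pooled LB shake-flask culture, induced with 0.3% L-arabinose, DNA abundance read by NGS, three biological replicates, DESeq2 with apeglm shrinkage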
- procedure-details: shrunken log2 fold change of peptide-encoding DNA abundance (4.5 h post-induction vs induction); higher = less antimicrobial activity (less host growth inhibition)
- stated-conditions: time post-induction: 4.5 h; library: site-saturation at positions 5, 18, 19, 20
Decision: shrunken log2 fold change compared against -0.1; not below it gives true, below it gives false.

Task: Entry RRIRFRPPRLPRPRPRPENNPRP : is its shrunken log2 fold change no less than -0.1?
Output: false

Task: Entry RRIRWRPPRLPRPRPRPDGEPRP : is its shrunken log2 fold change no less than -0.1?
Output: true

Task: Entry RRIRWRPPRLPRPRPRPYWPPRP : is its shrunken log2 fold change no less than -0.1?
Output: true

Task: Entry RRIRVRPPRLPRPRPRPTASPRP : is its shrunken log2 fold change no less than -0.1?
Output: true

Task: Entry RRIRFRPPRLPRPRPRPDRSPRP : is its shrunken log2 fold change no less than -0.1?
Output: true

Task: Entry RRIRRRPPRLPRPRPRPLFYPRP : is its shrunken log2 fold change no less than -0.1?
Output: false

Task: Entry RRIRLRPPRLPRPRPRPNGAPRP : is its shrunken log2 fold change no less than -0.1?
Output: true

Task: Entry RRIRHRPPRLPRPRPRPDHNPRP : is its shrunken log2 fold change no less than -0.1?
Output: false

Task: Entry RRIRIRPPRLPRPRPRPVKEPRP : is its shrunken log2 fold change no less than -0.1?
Output: true

Task: Entry RRIRERPPRLPRPRPRPNVDPRP : is its shrunken log2 fold change no less than -0.1?
Output: true

Task: Entry RRIRDRPPRLPRPRPRPSQIPRP : is its shrunken log2 fold change no less than -0.1?
Output: true

Task: Entry RRIRHRPPRLPRPRPRPSEMPRP : is its shrunken log2 fold change no less than -0.1?
Output: true

Task: Entry RRIRVRPPRLPRPRPRPNCLPRP : is its shrunken log2 fold change no less than -0.1?
Output: false

Task: Entry RRIRVRPPRLPRPRPRPLFKPRP : is its shrunken log2 fold change no less than -0.1?
Output: false

Task: Entry RRIRTRPPRLPRPRPRPMPQPRP : is its shrunken log2 fold change no less than -0.1?
Output: false
